Origin of measurements: PubChem BioAssay

Target: Fibroblast growth factor 10 (Homo sapiens) (UniProt O15520)
Sequence (O15520 whole entry, looked up): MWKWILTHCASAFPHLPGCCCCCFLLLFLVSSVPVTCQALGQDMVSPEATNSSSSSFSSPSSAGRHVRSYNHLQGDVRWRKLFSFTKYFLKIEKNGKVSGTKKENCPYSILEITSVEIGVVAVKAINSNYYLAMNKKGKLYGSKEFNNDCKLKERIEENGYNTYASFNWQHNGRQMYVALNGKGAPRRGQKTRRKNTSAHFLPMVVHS
Experiment: FGF10 binders on small-molecule microarrays, primary screen, biochemical, small-molecule microarray, 635 nm fluorescence (AID 1102)
Conditions: FGF10 binding, fluorescence 635 nm, higher = more signal
Give Condition met when the value for composite z-score is at least 0.3. Give Condition not met when it is less.

Dear colleague, could you confirm whether O=C1CCCC=C1C(O)c1ccc([N+](=O)[O-])cc1 (configuration not stated) has composite z-score at or above 0.3?
Condition met

Dear colleague, could you confirm whether `CCOC(=O)NN=C1C[C@@H](O)[C@@H](O)[C@@H]2[C@@H]3C(=O)N(c4ccc(F)cc4F)C(=O)[C@@H]3CC[C@H]12` has composite z-score at or above 0.3?
Condition not met

Dear colleague, could you confirm whether `CO[C@H]1COC(=O)[C@H](C)COC(=O)[C@@H](OCc2ccccc2)C=C[C@@H]1C` has composite z-score at or above 0.3?
Condition not met

Dear colleague, could you confirm whether `O=C1C=C[C@@H](O)[C@@H]2[C@@H]3C(=O)N(c4cccc(Oc5ccccc5)c4)C(=O)[C@@H]3CC[C@@H]12` has composite z-score at or above 0.3?
Condition met

Dear colleague, could you confirm whether CC(CCN1CCc2nc(-c3ccccc3)c(-c3ccccc3)cc2C1)=NOC(C)CN1CCCc2nc(C)c(C)cc21 (configuration not stated) has composite z-score at or above 0.3?
Condition met

Dear colleague, could you confirm whether `O=C1C=C[C@@H](O)[C@@H]2[C@@H]3C(=O)N(Cc4ccc5c(c4)OCO5)C(=O)[C@@H]3CC[C@@H]12` has composite z-score at or above 0.3?
Condition met

Dear colleague, could you confirm whether `CCCNC(=O)OC[C@H]1O[C@H](CCON=C2C[C@@H](O)[C@@H](O)[C@@H]3[C@@H]4C(=O)N(CC)C(=O)[C@@H]4CC[C@@H]23)C=C[C@@H]1Oc1ccc(OC)cc1` has composite z-score at or above 0.3?
Condition met

====

Target: Torsin-1A (Homo sapiens)
Experiment: torsin A binders from cell lysate, primary screen, small-molecule microarray, wild-type, 635/667 nm (AID 1149)
Details: COS7 hTOR1A-WT lysate, 635 nm fluorescence, higher = more signal
Can you tell me composite z-score for the items I'm about to list?

Provide measured composite z-score value, entry: `C[C@H]1C=CCC(=O)OC[C@H](C)C(=O)N2CCC[C@H]2C(=O)OC1`
3.32

Provide measured composite z-score value, entry: `O=C1[C@H]2[C@H]3[C@H](O)[C@H](O)CC(=NO[C@@H]4O[C@H](CO)[C@@H](O)[C@H](O)[C@H]4O)[C@@H]3CC[C@H]2C(=O)N1c1cccc(Oc2ccccc2)c1`
0.787

Provide measured composite z-score value, entry: `CC(=O)OC[C@H]1O[C@H](CC=NO[C@@H](C)c2cn([C@H](CO)Cc3ccccc3)nn2)C=C[C@@H]1OC(C)=O`
0.542

Provide measured composite z-score value, entry: `CC(C)[C@@H](OCc1ccccc1)[C@H](C)C=NO[C@H](C)c1cn([C@@H]2COC[C@H]2O)nn1`
1.4

Provide measured composite z-score value, entry: `CO[C@@H]1COC(=O)CC=C[C@H](C)[C@H](OC)COC(=O)[C@@H]2CCCN2C(=O)CC=C[C@H]1C`
0.719

Provide measured composite z-score value, entry: `CC(C)[C@@H](OCc1ccccc1)[C@H](C)C=NO[C@@H](C)c1cn([C@H](CO)Cc2ccccc2)nn1`
0.752

Provide measured composite z-score value, entry: O=C1CCCC=C1C(O)c1ccc([N+](=O)[O-])cc1 (stereo not drawn)
0.911

Provide measured composite z-score value, entry: `CC(=O)OC[C@H]1O[C@H](C#CCCc2ccccc2)C=C[C@@H]1OC(C)=O`
0.27
